This section presents compounds with their documented normalized growth values.
test: chemical genetic growth profiling, strain panel (AID 1159580);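 further: tested at 20 µM; growth read once vehicle control cultures reached saturation at 30 °C; 1 = growth at the plate median or of vehicle wells; lower values mean less growth of the strain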; conditions: S. cerevisiae deletion strains, growth OD, locus YNL153C, strain GIM3, active compounds read low
The whole screen tested about 5,500 compounds, of which about 2,000 (36%) were called active. About 18% were inconclusive and are not listed. The list shows a part of the results.
Enter the number alone.

COMPOUND | RECORDED_ENDPOINT | MEAS_VALUE
CCCCCCCCCCCCSc1nnc(N)s1 | normalized growth | 1.02

// query Could you tell me which normalized growth is on file for CCOC(=O)CC(SP(=S)(OC)OC)C(=O)OCC (stereo unspecified) ?
// result 1.01

// query # get_value(readout='normalized growth', item= CC(=O)N1CCCC1C(=O)O (stereo unspecified) )
// result 1

// query Please report the recorded normalized growth for NC[C@H]1O[C@H](OC2[C@@H](N)C[C@@H](N)[C@H](O[C@H]3O[C@H](CO)[C@@H](O)[C@H](N)[C@H]3O)[C@H]2O)[C@H](O)[C@@H](O)[C@@H]1O (stereo partly specified) .
// result 0.993

// query Can you share its normalized growth? I mean this compound: CSc1nc(NC(C)C)nc(NC(C)C)n1
// result 1

// query Query (compound): CC1(C)S[C@@H]2[C@H](NC(=O)C(C(=O)O)c3ccccc3)C(=O)N2[C@H]1C(=O)O (stereo partly specified) ; field requested: normalized growth
// result 0.989

// query May I ask what normalized growth has been recorded for COc1nc(NC(C)C)nc(NC(C)C)n1 ?
// result 1.01

// query Recorded normalized growth of COc1ccccc1N1CCN(C(=O)c2cccs2)CC1 , please.
// result 1.04

// query Fill blank: measured normalized growth of the compound COc1ccccc1N1CCN(C(=O)Nc2cc(Cl)cc(Cl)c2)CC1 is ____.
// result 0.975

// query Report normalized growth for O=C(NC1CCCCC1)N1CCN(c2ncccc2C(F)(F)F)CC1 please.
// result 0.988

// query Param item = O=C(O)CN(CCN(CC(=O)O)CC(=O)O)CC(=O)O ; retrieve measured normalized growth.
// result 0.834

----------
experiment: chemical genetic growth profiling, strain panel (AID 1159580);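 further: tested at 20 µM; growth read once vehicle control cultures reached saturation at 30 °C; 1 = growth at the plate median or of vehicle wells; lower values mean less growth of the strain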; conditions: S. cerevisiae deletion strains, growth OD, locus YLR371W, strain rom2, active compounds read low
Hit rate of the full screen: of about 5,500 compounds, about 2,000 (36%) were called active. Inconclusive results (about 18%) are left out. The list shows a part of the results.
// reported normalized growth for each item listed
Please give the numeric answer without any surrounding text.

COMPOUND | normalized growth
O=C(O)c1ccccc1O | 1.01

Attention now shifts to the item below.
// query Query: normalized growth; subject: COc1cc(O)c2c(=O)cc(-c3ccc(O)cc3)oc2c1
// result 1.03

----------
assay: chemical genetic growth profiling, strain panel (AID 1159580);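 further: tested at 20 µM; growth read once vehicle control cultures reached saturation at 30 °C; 1 = growth at the plate median or of vehicle wells; lower values mean less growth of the strain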; settings: S. cerevisiae deletion strains, growth OD, locus YPR163C, strain tif3, active compounds read low
The whole screen tested about 5,500 compounds, of which about 2,000 (36%) were called active. About 18% were inconclusive and are not listed. Some of the results follow.
RECORDED_ENDPOINT: normalized growth
# print the numeric value only

These solved cases illustrate the format of a correct answer.
COMPOUND | RECORDED_ENDPOINT | MEAS_VALUE
NC(=O)c1cc([N+](=O)[O-])cc([N+](=O)[O-])c1 | normalized growth | 0.995
CC(=O)[C@@]1(O)CCC2C3C=C(Cl)C4=CC(=O)[C@@H]5CC5[C@]4(C)C3CC[C@@]21C (some centres undefined) | normalized growth | 1.01
CC1=CC(=O)C2C(C)(C)CCC[C@]2(C)[C@@]1(O)CCc1ccoc1 (some centres undefined) | normalized growth | 0.977
CC1Cc2ccccc2N1NC(=O)c1ccc(Cl)c(S(N)(=O)=O)c1 (centres undefined) | normalized growth | 1
CCCCCC(O)C1C(=O)OC(C)C(O)/C=C/C=C/C=C/C=C/C=C(\C)C(O)CC(O)CC(O)CC(O)CC(O)CC(O)CC1O (centres undefined) | normalized growth | 1.02
CC1(C)Oc2ccc3ccc(=O)oc3c2CC1O (centres undefined) | normalized growth | 1.01

// query May I ask what normalized growth has been recorded for COc1ccc(-c2cc(=O)c3c(O)cc(O)c(-c4cc(-c5cc(=O)c6c(O)cc(O)cc6o5)ccc4OC)c3o2)cc1 ?
// result 1.02

// query Fill in the blank: the reported normalized growth of CCCc1nn(C)c2c(=O)[nH]c(-c3cc(S(=O)(=O)N4CCN(C)CC4)ccc3OCC)nc12 is ____.
// result 0.982

// query Given the compound CC(=O)N1CCN(c2ccc(OCC3CO[C@](Cn4ccnc4)(c4ccc(Cl)cc4Cl)O3)cc2)CC1 (some centres undefined) , what is its reported normalized growth?
// result 0.105

// query # lookup: normalized growth of NC(N)=Nc1ccc(Cl)cc1
// result 0.997

// query Which normalized growth value belongs to COc1cc(C)c2c(=O)c3c(O)cc(OC)cc3oc2c1 ?
// result 0.988

// query Which normalized growth value is on record for Cc1c(OCC(F)(F)F)ccnc1CS(=O)c1nc2ccccc2[nH]1 (centres undefined) ?
// result 0.976

// query Form field: reported normalized growth of CC1=C2C(O)C(=O)OC3CC4C(C)(C)C(=O)C=C[C@]4(C)C(CC1)[C@]23C (some centres undefined)
// result 1.02

// query Given the entry O=C(CCCN1CCC(O)(c2ccc(Cl)cc2)CC1)c1ccc(F)cc1 , report its measured normalized growth.
// result 0.575

// query Please report the recorded normalized growth for COc1c(O)cc2c(c1O)[C@H]1O[C@H](CO)[C@@H](O)[C@H](O)[C@@H]1OC2=O .
// result 1

// query Returns the measured normalized growth for the input compound. Input: COC(=O)[C@H]1[C@H]2C[C@H]3c4[nH]c5cc(OC)ccc5c4CCN3C[C@H]2C[C@@H](OC(=O)c2cc(OC)c(OC)c(OC)c2)[C@@H]1OC
// result 0.989

// query Which measured normalized growth value corresponds to CC1(C)S[C@@H]2[C@H](NC(=O)[C@@H](N)c3ccc(O)cc3)C(=O)N2[C@H]1C(=O)O ?
// result 1

// query I am curious: what normalized growth value has been reported for CC(=O)OCC(=O)[C@@]1(O)CCC2C3C[C@H](C)C4=CC(=O)C=CC4(C)C3[C@@H](O)CC21C (some centres undefined) ?
// result 1.01

// query Name the reported normalized growth value associated with the compound NCC(O)CC(=O)O (centres undefined)
// result 0.993

// query Entry under review: O=C(O)CN(CCN(CC(=O)O)CC(=O)O)CC(=O)O . Reported normalized growth?
// result 0.99

# credit: PubChem BioAssay AID1159580
